- target_desc: M-phase inducer phosphatase 1 (Homo sapiens) (UniProt P30304)
- Sequence (P30304 whole entry): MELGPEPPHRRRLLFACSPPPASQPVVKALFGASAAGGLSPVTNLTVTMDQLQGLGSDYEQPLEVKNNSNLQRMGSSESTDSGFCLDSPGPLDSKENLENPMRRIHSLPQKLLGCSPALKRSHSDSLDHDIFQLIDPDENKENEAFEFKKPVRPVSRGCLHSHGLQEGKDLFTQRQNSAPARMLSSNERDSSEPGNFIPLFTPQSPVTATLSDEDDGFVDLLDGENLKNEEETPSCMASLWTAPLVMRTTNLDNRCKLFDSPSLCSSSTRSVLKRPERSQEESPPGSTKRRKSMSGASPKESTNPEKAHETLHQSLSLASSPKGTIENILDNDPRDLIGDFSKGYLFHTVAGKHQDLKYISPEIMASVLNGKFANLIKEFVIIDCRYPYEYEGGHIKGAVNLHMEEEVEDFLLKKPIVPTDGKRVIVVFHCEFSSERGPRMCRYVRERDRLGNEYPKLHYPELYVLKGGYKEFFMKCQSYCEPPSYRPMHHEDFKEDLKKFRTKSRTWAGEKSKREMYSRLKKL
- protocol: Inhibition of human recombinant GST-tagged CDC25A expressed in bacterial expression system at 100 uM after 2 hrs
value_kind: inhibition (%)
Write the value in % as a bare number.

## Task Would you mind telling me what inhibition value was observed for O=C(/C=C/c1cc(=O)oc2cc(O)ccc12)c1ccc(O)c(O)c1 ?
## Result 68.7

## Task Would you mind telling me what inhibition value was observed for O=C(/C=C/c1cc(=O)oc2cc(O)ccc12)c1ccc(O)cc1 ?
## Result 55

## Task Would you mind telling me what inhibition value was observed for COc1ccc(/C=C/c2c(C)c3ccc(OC)cc3oc2=O)cc1 ?
## Result 45.3
